- target-or-test-system: T1, HSV UL42 (processivity factor of HSV DNA polymerase) (herpes simplex virus (HSV), UniProt P10226 1-488)
- T1 sequence: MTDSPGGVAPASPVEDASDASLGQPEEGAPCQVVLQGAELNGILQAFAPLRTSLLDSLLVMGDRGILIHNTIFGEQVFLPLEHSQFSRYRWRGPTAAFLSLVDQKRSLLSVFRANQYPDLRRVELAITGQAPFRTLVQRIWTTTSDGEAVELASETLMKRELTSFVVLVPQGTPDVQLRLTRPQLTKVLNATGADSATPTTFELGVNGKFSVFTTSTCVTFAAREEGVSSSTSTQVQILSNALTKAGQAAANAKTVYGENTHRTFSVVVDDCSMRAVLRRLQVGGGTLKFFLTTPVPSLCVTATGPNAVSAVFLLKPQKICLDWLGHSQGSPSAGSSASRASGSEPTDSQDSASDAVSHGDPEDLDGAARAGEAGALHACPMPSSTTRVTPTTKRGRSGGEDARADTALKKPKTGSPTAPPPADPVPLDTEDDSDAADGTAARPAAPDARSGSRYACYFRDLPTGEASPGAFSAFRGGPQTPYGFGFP
- test-protocol: cell-based or functional assay
quantity: IC50, inhibition of long chain DNA synthesis (µM)
Numbers only; they are read as µM.

binder	u	numeric-result
ATAEATRRMLHRAFDTLA [peptide E mutant E23A]	µM	21
ATAEETRRMAHRAFDTLA [peptide E mutant L28A]	µM	18
ATAEEARRMLHRAFDTLA [peptide E mutant T24A]	µM	77
ATAEETRAMLHRAFDTLA [peptide E mutant R26A]	µM	14

# evaluate next
## Input Record request: IC50, inhibition of long chain DNA synthesis value, item DDVAARLRAAGFGAVGAGATAEETRRMLHRAFDTLA [Peptide A (C-terminal 36 amino acid residues of HSV DNA polymerase, Pol residues 1200-1235)]
## Output 1.7
